biological target: Plasmodium falciparum lactate dehydrogenase (PfLDH) (Plasmodium falciparum, UniProt Q71T02 1-316); test: EMSA; apparent, 1:1 fit; EMSA: 25 nM strand, 0-2500 nM PfLDH (tetramer concentration in legends; text says Kd per subunit), 25 mM Tris-HCl pH 7.5, 100 mM NaCl, 20 mM imidazole, 25 C 1 h; details: protein: recombinant; chain copies: 4; hairpin
Note to self: Kd under 900 nM means label 1, ties and anything higher get label 0.

{"Binder": "aptamer staple 93 (ssDNA) DNA: GAGCAAAAACTTCTGAATAATGGAAGAAGGAGTTTTTTTTTTTTTTTTTTTTCTGGGCGGTAGAACCATAGTGACCCAGCCGTCTAC", "Assigned Category": "label 1"}
{"Binder": "aptamer staple 81 (ssDNA) DNA: CCGGAAACACACCACGGAATAAGTAAGACTCCTTTTTTTTTTTTTTTTTTTTCTGGGCGGTAGAACCATAGTGACCCAGCCGTCTAC", "Assigned Category": "label 0"}
{"Binder": "aptamer staple 77 (ssDNA) DNA: TGCTCAGTCAGTCTCTGAATTTACCAGGAGGTTTTTTTTTTTTTTTTTTTTTCTGGGCGGTAGAACCATAGTGACCCAGCCGTCTAC", "Assigned Category": "label 1"}
{"Binder": "aptamer staple 85 (ssDNA) DNA: CTTTACAGTTAGCGAACCTCCCGACGTAGGAATTTTTTTTTTTTTTTTTTTTCTGGGCGGTAGAACCATAGTGACCCAGCCGTCTAC", "Assigned Category": "label 1"}
{"Binder": "aptamer staple 89 (ssDNA) DNA: AGAGGCATAATTTCATCTTCTGACTATAACTATTTTTTTTTTTTTTTTTTTTCTGGGCGGTAGAACCATAGTGACCCAGCCGTCTAC", "Assigned Category": "label 1"}
{"Binder": "aptamer staple 97 (ssDNA) DNA: CTAAAGCAAGATAGAACCCTTCTGAATCGTCTTTTTTTTTTTTTTTTTTTTTCTGGGCGGTAGAACCATAGTGACCCAGCCGTCTAC", "Assigned Category": "label 1"}
{"Binder": "aptamer staple 91 (ssDNA) DNA: TATGTAAACCTTTTTTAATGGAAAAATTACCTTTTTTTTTTTTTTTTTTTTTCTGGGCGGTAGAACCATAGTGACCCAGCCGTCTAC", "Assigned Category": "label 0"}
{"Binder": "aptamer staple 83 (ssDNA) DNA: TTATTACGGTCAGAGGGTAATTGAATAGCAGCTTTTTTTTTTTTTTTTTTTTCTGGGCGGTAGAACCATAGTGACCCAGCCGTCTAC", "Assigned Category": "label 0"}
{"Binder": "aptamer staple 76 (ssDNA) DNA: TATCACCGTACTCAGGAGGTTTAGCGGGGTTTTTTTTTTTTTTTTTTTTTTTCTGGGCGGTAGAACCATAGTGACCCAGCCGTCTAC", "Assigned Category": "label 0"}
{"Binder": "aptamer staple 95 (ssDNA) DNA: CGGAATTATTGAAAGGAATTGAGGTGAAAAATTTTTTTTTTTTTTTTTTTTTCTGGGCGGTAGAACCATAGTGACCCAGCCGTCTAC", "Assigned Category": "label 1"}
{"Binder": "aptamer staple 79 (ssDNA) DNA: TGAGGCAGGCGTCAGACTGTAGCGTAGCAAGGTTTTTTTTTTTTTTTTTTTTCTGGGCGGTAGAACCATAGTGACCCAGCCGTCTAC", "Assigned Category": "label 1"}
